Data provenance is ChEMBL document CHEMBL1201862.

Please go through the items and note down their GI50.
# Tested on: HL-60
# TEST PROTOCOL: NCI tumour cell line growth inhibition, 48 h
Calls of active or inactive are those of the source. Rule as the data show it: active = GI50 up to about 1.1 µM and inactive = higher.

Request: GET /values?readout=GI50&item= C/C(=C\c1ccccc1)C(=O)CCN1CCOCC1
Result: 33.7 µM (inactive)

Request: GET /values?readout=GI50&item= CC(C)[Si]1(C(C)C)OCC2OC(n3ccc(=O)[nH]c3=O)C([Se]c3ccccc3)C2O[Si](C(C)C)(C(C)C)O1 (centres undefined)
Result: 5.89 µM (inactive)

Request: GET /values?readout=GI50&item= O=C1C(Cl)=C(Cl)C(=O)N1c1ccc(F)cc1 [FLUOROIMIDE]
Result: 1.89 µM (inactive)

Request: GET /values?readout=GI50&item= N#C[BH2-][n+]1cn(C2CC(O)C(COP(=O)(O)OC3CC(n4cnc5c(=O)[nH]c(N)nc54)OC3CO)O2)c2nc(N)[nH]c(=O)c21 (centres undefined)
Result: > 100 µM (inactive)

* * *

# Test system: UACC-62
# TEST PROTOCOL: NCI tumour cell line growth inhibition, 48 h
Activity calls are given as the source filed them. Cut-off read from the data, not from the text of the source: active = GI50 up to about 1.1 µM and inactive = higher.
Please go through the items and note down their GI50.

Request: GET /values?readout=GI50&item= CCOP(=O)(OCC)C(C(=O)OC)C(=O)C(=O)Nc1ccc(Cl)cc1Cl (stereo unspecified)
Result: > 100 µM (inactive)

Request: GET /values?readout=GI50&item= c1ccc(C2=Nc3cccc4cccc(c34)N2)cc1
Result: 37.9 µM (inactive)

Request: GET /values?readout=GI50&item= N#Cc1c(-c2nc3ccccc3s2)c(=O)oc2cc(O)ccc12
Result: > 100 µM (inactive)

Request: GET /values?readout=GI50&item= O=c1cc2n(c(=O)[nH]1)C1OC(C(O)C1O)[C@@H]2CCO (stereo partly specified)
Result: > 100 µM (inactive)

Request: GET /values?readout=GI50&item= COc1cccc(C(C#N)NC23CC4CC(CC(C4)C2)C3)c1 (stereo unspecified)
Result: > 100 µM (inactive)

Request: GET /values?readout=GI50&item= Cc1cccc2c(=O)c3cccc([C@H](C)C(=O)O)c3oc12
Result: > 100 µM (inactive)

Request: GET /values?readout=GI50&item= O=S1(=O)c2ccccc2Oc2ccc(C(/C=N/O)=N/O)cc21
Result: 71.3 µM (inactive)

Request: GET /values?readout=GI50&item= Cc1nc2ccc(/N=N/N(C)C)cc2[nH]1
Result: > 100 µM (inactive)

Request: GET /values?readout=GI50&item= Cc1c2ccncc2c(C)c2c1[nH]c1ccc(OC(C)(C)C)cc12
Result: 2.31 µM (inactive)

Request: GET /values?readout=GI50&item= C[C@]12C[C@H](c3ccccc3)Nc3ccccc3N1C(c1ccccc1)=NO2
Result: 85.1 µM (inactive)

Request: GET /values?readout=GI50&item= CC1C(=O)C23OC[C@@]1(C)C1(O)CC[C@@H](C)[C@]21CC3=O (stereo partly specified)
Result: > 100 µM (inactive)

* * *

Please go through the items and note down their GI50.
# Tested on: MDA-N
# TEST PROTOCOL: NCI tumour cell line growth inhibition, 48 h
Calls of active or inactive are those of the source. Rule as the data show it: active = GI50 up to about 1.1 µM and inactive = higher.

Request: GET /values?readout=GI50&item= CC(C)(C)n1c(=O)n2n(c1=O)Cc1cccc3cccc(c13)C2
Result: 22.1 µM (inactive)

Request: GET /values?readout=GI50&item= O=C1C=C2CC[C@H]3[C@@H]4CC[C@H](OC(=O)c5cccc6cc7ccccc7nc56)[C@H]4CC[C@@H]3[C@H]2CC1
Result: > 100 µM (inactive)

Request: GET /values?readout=GI50&item= CCOc1ccnc2c(OC)c(C)c3nc4ccccc4nc3c12
Result: > 100 µM (inactive)

Request: GET /values?readout=GI50&item= Cc1[nH]c2ncn(/N=C/c3ccccc3)c(=N)c2c1Cc1ccccc1
Result: 55.1 µM (inactive)

Request: GET /values?readout=GI50&item= O=C(O)c1ccc(N/C(=C(/C(Cl)=C(Cl)Cl)[N+](=O)[O-])n2nnc3ccccc32)cc1
Result: > 100 µM (inactive)

Request: GET /values?readout=GI50&item= CC(C)(C)NC(=O)/C(=C\Sc1ccccc1)c1ccc2c(c1)OCO2
Result: 22.8 µM (inactive)

Request: GET /values?readout=GI50&item= O=C(O)C1C2C=CC(O2)C1C(=O)Nc1ncccn1 (centres undefined)
Result: > 100 µM (inactive)

Request: GET /values?readout=GI50&item= O=C(NCCCCCCCCNC(=O)Nc1cccc2ccccc12)Nc1cccc2ccccc12
Result: 20.3 µM (inactive)

Request: GET /values?readout=GI50&item= NC(CC1=CS(=O)(=O)c2ccc(Cl)cc21)C(=O)O (centres undefined)
Result: > 100 µM (inactive)

Request: GET /values?readout=GI50&item= CCOC(=O)C1(C(=O)OCC)C[C@]23OCCC(=O)[C@H]2[C@H]2C(=O)OC(C)(C)O[C@]23C1
Result: > 100 µM (inactive)

Request: GET /values?readout=GI50&item= O=C(N/N=C(\c1ccccc1)c1ccccn1)NC1CCCCC1
Result: > 100 µM (inactive)

Request: GET /values?readout=GI50&item= CCC(=O)Nc1ccc(/N=C/c2cccc(Oc3ccccc3)c2)cc1
Result: 40.1 µM (inactive)

Request: GET /values?readout=GI50&item= COc1ccc2nc3cc(Cl)ccc3c(NCCNC(=O)Cn3c(=O)n(C)c(=O)c4c3nc3c(c(=O)n(C)c(=O)n3C)[n+]4[O-])c2c1
Result: 46.3 µM (inactive)

Request: GET /values?readout=GI50&item= CC(C)(C)OC(=O)C1/C(=C/CBr)CN1C(=O)OC(C)(C)C (centres undefined)
Result: 14.7 µM (inactive)

Request: GET /values?readout=GI50&item= N#Cc1nc(-c2cccs2)oc1N
Result: > 100 µM (inactive)

Request: GET /values?readout=GI50&item= N#Cc1ncn(-c2ccccc2)c1N
Result: > 100 µM (inactive)

Request: GET /values?readout=GI50&item= O=C(O)CC(NC(=O)C(F)(F)F)C(=O)NC1Cc2ccccc2OC1=O (centres undefined)
Result: > 100 µM (inactive)

Request: GET /values?readout=GI50&item= CC(C)NC(=O)OCc1c(COC(=O)NC(C)C)c(-c2cc[n+](COC(=O)C(C)(C)C)cc2)n2c1CCC2
Result: > 100 µM (inactive)

Request: GET /values?readout=GI50&item= Cc1ccc(S(=O)(=O)OC2=C/C(=N\c3onc(C)c3C)c3ccccc3C2=O)cc1
Result: 25.2 µM (inactive)

Request: GET /values?readout=GI50&item= Cc1cccc2c(=O)c3cccc([C@H](C)C(=O)O)c3oc12
Result: > 100 µM (inactive)

Request: GET /values?readout=GI50&item= Cc1nc2ccc(/N=N/N(C)C)cc2[nH]1
Result: > 100 µM (inactive)

Request: GET /values?readout=GI50&item= C/C(=N\Nc1nc2ccccc2s1)c1cccc[n+]1[O-]
Result: 76.2 µM (inactive)

Request: GET /values?readout=GI50&item= CC(C)[C@H]1NC(=O)[C@H]2N=C(O[C@@H]2C)[C@@H]2CCCN2C(=O)[C@H](Cc2ccccc2)NC(=O)[C@@H]2COC(=N2)[C@@H](Cc2ccccc2)NC(=O)[C@@H]2COC1=N2
Result: > 100 µM (inactive)

Request: GET /values?readout=GI50&item= CCN(CC)Cc1ccc(Nc2c3ccccc3nc3ccccc23)cc1
Result: 1.53 µM (inactive)

* * *

Please go through the items and note down their GI50.
# Test system: HCT-116
# TEST PROTOCOL: NCI tumour cell line growth inhibition, 48 h
Active and inactive are the calls of the source. Rule as the data show it: active = GI50 up to about 1.1 µM and inactive = higher.

Request: GET /values?readout=GI50&item= O=C(O)CCNCCCCNCCC(=O)O
Result: > 100 µM (inactive)

Request: GET /values?readout=GI50&item= CC(=O)O/C=C1/C[C@H]2[C@@H]3CCC4CC(C(C)=O)CC[C@]4(C)[C@H]3CC[C@]2(C)C1=O (some centres not stated)
Result: 29.6 µM (inactive)

Request: GET /values?readout=GI50&item= C#C[C@@H](OC(=O)c1ccc([N+](=O)[O-])cc1)[C@@H]1C[C@H]2O[C@@H]([C@H](C/C=C/CC)OC(=O)c3ccc([N+](=O)[O-])cc3)C[C@H]2O1
Result: > 100 µM (inactive)

Request: GET /values?readout=GI50&item= O=C1C=C2CC[C@H]3[C@@H]4CC[C@H](OC(=O)c5cccc6cc7ccccc7nc56)[C@H]4CC[C@@H]3[C@H]2CC1
Result: > 100 µM (inactive)

Request: GET /values?readout=GI50&item= c1ccc(C2=Nc3cccc4cccc(c34)N2)cc1
Result: 23.3 µM (inactive)

Request: GET /values?readout=GI50&item= Cc1ccc(/C=N/Nc2cnccn2)s1
Result: > 100 µM (inactive)

Request: GET /values?readout=GI50&item= CC(C)[C@H]1NC(=O)[C@H]2N=C(O[C@@H]2C)[C@@H]2CCCN2C(=O)[C@H](Cc2ccccc2)NC(=O)[C@@H]2COC(=N2)[C@@H](Cc2ccccc2)NC(=O)[C@@H]2COC1=N2
Result: > 100 µM (inactive)
